molecular target: estrogen receptor alpha (ESR1) (Homo sapiens, UniProt P03372); assay: cell-based; details: MCF7 breast cancer cells, 4 hours; plateau of the maximal effect; DMSO and Fulvestrant define 0% and 100% changes in ESR1
Sequence (P03372 whole entry): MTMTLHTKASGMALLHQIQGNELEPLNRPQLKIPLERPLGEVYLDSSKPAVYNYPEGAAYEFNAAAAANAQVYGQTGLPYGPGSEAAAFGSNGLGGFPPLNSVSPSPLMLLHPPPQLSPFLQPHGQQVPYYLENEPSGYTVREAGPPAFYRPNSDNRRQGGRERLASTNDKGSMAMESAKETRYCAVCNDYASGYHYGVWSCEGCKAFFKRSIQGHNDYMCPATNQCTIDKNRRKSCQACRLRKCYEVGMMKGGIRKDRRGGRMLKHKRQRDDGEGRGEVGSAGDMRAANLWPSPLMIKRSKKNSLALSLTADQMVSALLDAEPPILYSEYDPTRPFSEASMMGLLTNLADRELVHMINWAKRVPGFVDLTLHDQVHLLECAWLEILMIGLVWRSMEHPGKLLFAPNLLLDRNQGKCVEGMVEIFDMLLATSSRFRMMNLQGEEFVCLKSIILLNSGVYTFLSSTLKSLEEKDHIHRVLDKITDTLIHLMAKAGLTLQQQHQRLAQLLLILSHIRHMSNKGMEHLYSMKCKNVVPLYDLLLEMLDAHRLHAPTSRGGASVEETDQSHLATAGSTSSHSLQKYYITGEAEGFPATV
Measured ER-alpha MCF7 HCS Sinf by item

Use these answered entries as a reference point.
INSERT INTO measurements (compound, observable, reported_result) VALUES
  ('Cc1c(-c2ccc(O)cc2)n(Cc2ccc(OCCN3CC(CF)C3)cc2)c2ccccc12', 'ER-alpha MCF7 HCS Sinf', '−93%'),
  ('C[C@@H](COc1ccc(C(=O)c2c(-c3ccccc3Cl)noc2-c2ccc(O)cc2)cc1F)N1CC[C@@H](CF)C1', 'ER-alpha MCF7 HCS Sinf', '−101%'),
  ('CCN(Cc1ccc(OCCN2CC(CF)C2)cc1)c1cc(OC)ccc1C1CCc2cc(O)ccc2C1 (stereo not shown)', 'ER-alpha MCF7 HCS Sinf', '−55%');

Simply: `CS(=O)(=O)c1ccc(-c2ccc3cc(O)ccc3c2Oc2ccc(OCCN3CC[C@@H](CF)C3)cc2)cc1` , estrogen receptor alpha (ESR1) (Homo sapiens, UniProt P03372), ER-alpha MCF7 HCS Sinf = −95%

Data provenance is patent US9845291B2.
